Attribute: β-Galactosidase Activity, Cultured Without ATC
Tested on: tet operator sequence
Experiment: β-galactosidase activity of a tetracycline-regulated promoter in transformed E. coli with revTetR, in the presence and absence of anhydrotetracycline (atc)
Format: cell-based, Escherichia coli
Conditions: RevTetR isolate cultured in the absence of anhydrotetracycline (ATC)
readoutName: β-Galactosidase Activity, Cultured Without ATC

molecule	recordedResult
TetRrev96/99-8: revTetR(BD) G96N V99H (protein, Modified tetracycline repressor, revTetR(BD) G96N V99H) MSRLDKSKVINSALELLNEVGIEGLTTRKLAQKLGVEQPTLYWHVKNKRALLDALAVEILARHHDYSLPAAGESWQSFLRNNAMSFRRALLRYRDNAKHHLGTRPDEKQYDTVETQLRFMTENGFSLRDGLYAISAVSHFTLGAVLEQQEHTAALTDRPAAPDENLPPLLREALQIMDSDDGEQAFLHGLESLIRGFEVQLTALLQIV	103.657
TetRrevAF7/2: revTetR(BD) L14V E15V E23D K48K G96L G102A (protein, Modified tetracycline repressor, revTetR(BD) L14V E15V E23D K48K G96L G102A) MSRLDKSKVINSAVVLLNEVGIDGLTTRKLAQKLGVEQPTLYWHVKNKRALLDALAVEILARHHDYSLPAAGESWQSFLRNNAMSFRRALLRYRDLAKVHLATRPDEKQYDTVETQLRFMTENGFSLRDGLYAISAVSHFTLGAVLEQQEHTAALTDRPAAPDENLPPLLREALQIMDSDDGEQAFLHGLESLIRGFEVQLTALLQIV	58.8637
TetRrev29/25: revTetR(BD) G21- I22- E23- G24S (protein, Modified tetracycline repressor, revTetR(BD) G21- I22- E23- G24S) MSRLDKSKVINSALELLNEVSLTTRKLAQKLGVEQPTLYWHVKNKRALLDALAVEILARHHDYSLPAAGESWQSFLRNNAMSFRRALLRYRDGAKVHLGTRPDEKQYDTVETQLRFMTENGFSLRDGLYAISAVSHFTLGAVLEQQEHTAALTDRPAAPDENLPPLLREALQIMDSDDGEQAFLHGLESLIRGFEVQLTALLQIV	92.9327
TetRrev28/36: revTetR(BD) N18I E19G V20G E23V (protein, Modified tetracycline repressor, revTetR(BD) N18I E19G V20G E23V) MSRLDKSKVINSALELLIGGGIVGLTTRKLAQKLGVEQPTLYWHVKNKRALLDALAVEILARHHDYSLPAAGESWQSFLRNNAMSFRRALLRYRDGAKVHLGTRPDEKQYDTVETQLRFMTENGFSLRDGLYAISAVSHFTLGAVLEQQEHTAALTDRPAAPDENLPPLLREALQIMDSDDGEQAFLHGLESLIRGFEVQLTALLQIV	65.5335
TetRrevAD2/5: revTetR(BD) L17F L55L L60F R62V (protein, Modified tetracycline repressor, revTetR(BD) L17F L55L L60F R62V) MSRLDKSKVINSALELFNEVGIEGLTTRKLAQKLGVEQPTLYWHVKNKRALLDALAVEIFAVHHDYSLPAAGESWQSFLRNNAMSFRRALLRYRDGAKVHLGTRPDEKQYDTVETQLRFMTENGFSLRDGLYAISAVSHFTLGAVLEQQEHTAALTDRPAAPDENLPPLLREALQIMDSDDGEQAFLHGLESLIRGFEVQLTALLQIV	50.466

These entries and their values trace back to patent US20030186281A1.
